# test-protocol: yeast display, Sf9 membrane polyspecificity reagent, FACS + sequencing; frameworks hold sequencing errors
property-measured: polyreactivity (PSR sort gate)

INSERT INTO results (polymer_sequence, property_measured, observed_result) VALUES
  ('QVQLVESGGGLLQAGGSLRLSCAASGIIFRGYSMGWYRPAPGKERELVASITRRGGSTRYADSVKGRFTISRDNAKNTVYLQMNSLKPEDTPVYYCAAVGVGKTSTAYGYWGQGTQVNVSS', 'polyreactivity (PSR sort gate)', 'high polyreactivity'),
  ('QVQLVESGGGLVQAGGSLRLSCAASGSIFRAYAMGWYRQAPGKERELVAAISWGGGSTSYADSVKGRFTISRDNAKNTVYLQMNSLKPEDTAVYYCNKVSLSKRRDYYWGQGTQVTVSS', 'polyreactivity (PSR sort gate)', 'high polyreactivity'),
  ('QVQLVESGGGLVQAGGSLRLSCAASGFIFYKNAMGWYRQAPGKERELVAAISASGVRTYYADSVKGRFTISRDNAKNTVYLQMNSLKPEDTAVYYSAADYTPEYYWGQGTQVTVSS', 'polyreactivity (PSR sort gate)', 'high polyreactivity');
